# Tested on: soybean cot-node explants
# procedure text: GUS transient expression on soybean cot-node explants after 5-day co-cultivation with Agrobacterium (T-DNA delivery)
# Format: cell-based, Glycine max
# settings: agent added to co-cultivation medium
property label: Agrobacterium-mediated T-DNA transfer/delivery into cot-node cells

- compound: "N[C@H](CS)C(=O)O [D-cysteine]"
  reading: "Increases"
- compound: "O=S(=O)(O)c1ccc(-c2ccnc3c2ccc2c(-c4ccc(S(=O)(=O)O)cc4)ccnc23)cc1 [Bathophenanthroline disulfonic acid]"
  reading: "Increases"
- compound: "N[C@@H](CSSC[C@H](N)C(=O)O)C(=O)O [L-cystine]"
  reading: "Increases"
- compound: "Cc1cc(-c2ccc(S(=O)(=O)O)cc2)c2ccc3c(-c4ccc(S(=O)(=O)O)cc4)cc(C)nc3c2n1 [Bathocuproine disulfonic acid]"
  reading: "Increases"

Record request: Agrobacterium-mediated T-DNA transfer/delivery into cot-node cells value, item N[C@@H](CCC(=O)N[C@@H](CS)C(=O)NCC(=O)O)C(=O)O [Glutathione] Increases
